B1: PLAGL1 (parent)
chain: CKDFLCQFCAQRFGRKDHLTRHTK

Variants of: B1
Assay: protein stability index of a GFP-peptide fusion (GPS, HEK-293T) (PSI 1-6); higher = more stable;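 note: lentivirally expressed fusions sorted by FACS into six bins by GFP to DsRed ratio, PSI derived from sequencing read proportions per bin multiplied by bin number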
Details: c terminus: a fixed tail appended
Classify as follows. Reported protein stability index greater than or equal to 2: 1. Reported protein stability index below: -1.

Field: example entries. Status: answers known.
INSERT INTO assay_data (seq_text, label) VALUES
  ('CKDFLCQFCAQRFGRKDHRTRHTK', 1),
  ('CKDFLCQFCAQRFGRKDHLTRKTK', -1),
  ('CKDTLCQFCAQRFGRKDHLTRHTK', 1),
  ('CKDFLCQFCAQQFGRKDHLTRHTK', -1),
  ('CKDFLCQFCAQRFGRKDHLTRHTM', -1);

// query Quick check: does CKDFLCQFCAQRFGRKDHLTRHQK have protein stability index greater than or equal to 2?
// result 1
